Molecular target: T1, full-length human GIPR with an N-terminal FLAG tag (human, UniProt P48546 22-466)
T1 sequence (looked up): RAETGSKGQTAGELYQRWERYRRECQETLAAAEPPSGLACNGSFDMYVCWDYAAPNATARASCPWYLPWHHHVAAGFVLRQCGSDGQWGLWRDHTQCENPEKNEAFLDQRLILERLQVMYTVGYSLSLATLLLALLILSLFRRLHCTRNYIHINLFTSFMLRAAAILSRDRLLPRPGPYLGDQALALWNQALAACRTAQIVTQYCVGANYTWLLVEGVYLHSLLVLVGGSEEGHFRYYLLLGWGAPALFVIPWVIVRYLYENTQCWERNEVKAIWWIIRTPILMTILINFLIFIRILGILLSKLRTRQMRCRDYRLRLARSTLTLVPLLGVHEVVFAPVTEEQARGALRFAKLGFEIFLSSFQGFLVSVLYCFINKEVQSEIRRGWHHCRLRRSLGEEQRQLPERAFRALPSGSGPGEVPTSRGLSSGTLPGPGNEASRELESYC
Test: cell-based or functional assay
Starred links: 1 amine or outer side, 2 acyl side, 3 side chain; linkers in the order of their positions; H or OH if unused. Non-standard residues stand in square brackets, D forms with d. Groups on a side chain read outwards from the residue. No end group written: not given here. *: point of attachment. 2OEGgE‑C16DA = O=C(O)CCCCCCCCCCCCCCC(=O)N[C@@H](CCC(=O)NCCOCCOCC(=O)NCCOCCOCC(=O)*)C(=O)O; G2E3 = linker of 2 Gly and 3 Glu (read GGEEE); C15 diacid = O=C(O)CCCCCCCCCCCCCC(=O)*; γGlu = O=C(O)[C@H](CCC(=O)[*:2])N[*:1]; NMeY = CN[C@@H](Cc1ccc(O)cc1)C(=O)O; AEEA = NCCOCCOCC(=O)O; Aib = CC(C)(N)C(=O)O
observed_property: Human GIPR cAMP, HEK293T EC50 (pM)
I only need the number, in pM, no unit after it.

**Query** Recall and state the measured Human GIPR cAMP, HEK293T EC50 for [NMeY][Aib]EGTFISDYSIALDR[Aib]AQ[Aib]K([G2E3-C15 diacid])FVNWLLAQK-NH2 [Compound 31] .
**Result** 0.2

**Query** Output measured Human GIPR cAMP, HEK293T EC50 for this item: [NMeY][Aib]EGTFISDYSIALDR[Aib]AQ[Aib]KFVNWLLAQRGGGGS-NH2 (not fully specified (residue 21)) [Compound 96]
**Result** 0.4

**Query** Supply recorded Human GIPR cAMP, HEK293T EC50 for [NMeY][Aib]EGTFISDYSIAK(2OEGgE‑C16DA)DR[Aib]AQ[Aib]NFVNWLLAQK [Compound 11] here.
**Result** 0.3

**Query** Provide one value: measured Human GIPR cAMP, HEK293T EC50 of [NMeY][Aib]EGTFISDYSIALDR[Aib]AQ[Aib]K([AEEA-γGlu-γGlu-γGlu-C15 diacid])FVNWLLA[Aib]K-OH (not fully specified) [Compound 45]
**Result** 0.3

Data credit: patent US20220227830A1
